Origin of the recorded values: patent US11254663B2

# target-under-test: FXR (Homo sapiens (Human))
# Sequence (Q96RI1 262-486): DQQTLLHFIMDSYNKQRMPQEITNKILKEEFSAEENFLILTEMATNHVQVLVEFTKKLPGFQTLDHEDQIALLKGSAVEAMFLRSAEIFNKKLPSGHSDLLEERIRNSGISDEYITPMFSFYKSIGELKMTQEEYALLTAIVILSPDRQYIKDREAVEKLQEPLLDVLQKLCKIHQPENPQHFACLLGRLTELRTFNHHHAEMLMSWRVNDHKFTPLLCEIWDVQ
# assay-protocol: transient human FXR/Gal4-luciferase reporter assay
# Format: cell-based
# condition-set: Gal4-hFXR fusion construct, HEK293 reporter cells; response relative to 8 μM GW-4064
Dear colleague, classification is by EC50, with ranges listed here: low bracket = under 70 nM, middle bracket = from 70 nM up to 300 nM, high bracket = 300 nM and over

| compound | discrete-label |
| --- | --- |
| CCOc1ccc(-c2cccc(N(CC34CCC(c5nc(C(C)C)no5)(CC3)CC4)C(=O)C34CC(F)(C3)C4)c2)cn1 [Example 381] | low bracket |
| CC(C)(O)c1ccc(-c2cc(N(CC34CCC(c5noc(C(C)(C)F)n5)(CC3)CC4)C(=O)OC(C)(C)C(F)(F)F)ncc2F)cc1 [Example 620] | low bracket |
| CC(C)Oc1ccc(-c2cccc(N(CC34CCC(c5noc(C(C)(C)F)n5)(CC3)CC4)C(=O)OC3(C(F)(F)F)COC3)c2)cc1 [Example 632] | middle bracket |
| CCOc1ncc(-c2cccc(N(CC34CCC(c5noc(C(C)C)n5)(CC3)CC4)C(=O)C34CC(F)(C3)C4)c2)cn1 [Example 429] | low bracket |
| Cc1nc2ccc(-c3cccc(N(CC45CCC(c6ccc(C7(C#N)CC7)cc6)(CC4)OC5)C(=O)C45CC(F)(C4)C5)c3)cc2o1 [Example 347] | middle bracket |
| O=C(N(CC12CCC(c3ccc(C(F)(F)F)cn3)(CC1)CC2)c1cccc(-c2ccc(OC(F)F)cn2)c1)C12CC(F)(C1)C2 [Example 495] | middle bracket |
| CCOc1ncc(-c2cccc(N(CC34CCC(c5noc(C(C)(C)C)n5)(CC3)CC4)C(=O)C34CC(F)(C3)C4)c2)cn1 [Example 437] | low bracket |
| CCOc1ncc(-c2cccc(N(CC34CCC(c5cc(C6CC6)n(C)n5)(CC3)CC4)C(=O)C34CC(F)(C3)C4)c2)cn1 [Example 407] | middle bracket |
| CC(C)OC(=O)NC12CCC(CN(C(=O)C3CC(O)(C(F)(F)F)C3)c3cccc(-c4ccc(C(C)(C)O)cc4)c3)(CC1)CC2 (stereo not shown) [Example 602] | middle bracket |
| COc1cc(-c2cccc(N(CC34CCC(c5nc(C6CC6)no5)(CC3)CC4)C(=O)C34CC(F)(C3)C4)c2)ccc1F [Example 260] | high bracket |
| CC(C)Oc1ccc(-c2cccc(N(CC34CCC(c5noc(C(C)(C)F)n5)(CC3)CC4)C(=O)OC(C)(C)C(F)(F)F)c2)cc1 [Example 584] | low bracket |
| CC(C)(C)c1noc(C23CCC(CN(C(=O)C45CC(F)(C4)C5)c4cccc(-c5ccc(NS(C)(=O)=O)nc5)c4)(CC2)CC3)n1 [Example 364] | high bracket |
| O=C(N(CC12CCC(c3noc(C4(F)CC4)n3)(CC1)CC2)c1cccc(-c2cnc(C3CC3)nc2)c1)C12CC(F)(C1)C2 [Example 579] | low bracket |
| COc1cc(-c2cccc(N(CC34CCC(c5ccnc(C)c5)(CC3)CC4)C(=O)C3CC(F)(F)C3)c2)ccn1 [Example 237] | high bracket |
| N#Cc1ccc(-c2cccc(N(CC34CCC(c5nc(C6CC6)no5)(CC3)CC4)C(=O)C34CC(F)(C3)C4)c2)cc1 [Example 302] | high bracket |
| Cn1ncc2cc(-c3cccc(N(CC45CCC(c6nc(C7CC7)no6)(CC4)CC5)C(=O)C45CC(F)(C4)C5)c3)ccc21 [Example 304] | middle bracket |
| Cc1nc2ncc(-c3cccc(N(CC45CCC(c6noc(C(C)(C)C)n6)(CC4)CC5)C(=O)C45CC(F)(C4)C5)c3)cc2s1 [Example 449] | middle bracket |
| COc1cc(-c2cccc(N(CC34CCC(c5cc(C(F)(F)F)ccn5)(CC3)CC4)C(=O)C34CC(F)(C3)C4)c2)ccn1 [Example 241] | high bracket |
| CCOc1ccc(-c2cccc(N(CC34CCC(c5nc(C(C)C)no5)(CC3)CC4)C(=O)C34CC(F)(C3)C4)c2)cc1 [Example 375] | low bracket |
| Cc1nc2ccc(-c3cccc(N(CC45CCC(c6nc(C7CC7)no6)(CC4)CC5)C(=O)C45CC(F)(C4)C5)c3)cc2o1 [Example 275] | low bracket |
| COc1cc(-c2cccc(N(CC34CCC(c5nnc(C)s5)(CC3)CC4)C(=O)C3CC(O)(C(F)(F)F)C3)c2)ccn1 (stereo not shown) [Example 236] | high bracket |
| COc1nccc(-c2cccc(N(CC34CCC(c5nc(C6CC6)no5)(CC3)CC4)C(=O)C34CC(F)(C3)C4)c2)n1 [Example 242] | middle bracket |
| N#CC1(c2ccc(-c3cccc(N(CC45CCC(c6noc(C7(F)CC7)n6)(CC4)CC5)C(=O)[C@H]4C[C@](O)(C(F)(F)F)C4)c3)cc2F)CC1 [Example 578] | middle bracket |
| CC(C)Oc1ccc(-c2cccc(N(CC34CCC(c5cc(C(C)(F)F)on5)(CC3)CC4)C(=O)OC(C)(C)C(F)(F)F)c2)cc1 [Example 656] | high bracket |
